Measurement Protocol: Mammalian cell cytotoxicity, colony formation
Format: cell-based
Measurement Context: Chinese hamster

Compound | IC50 at 3 h
CN(C)CCN1C(=O)c2cc([N+](=O)[O-])cc3cc([N+](=O)[O-])cc(c23)C1=O [Ref #1, reference compound] | < 8 µM

###

System: B. subtilis RB1
Observation Type: MIC (µg/mL)

Compound | Assay System | Observation Type | Measurement Unit | Result Value
O=C1c2cccc3c([N+](=O)[O-])ccc(c23)C(=O)N1O | B. subtilis RB1 | MIC | µg/mL | 4
O=C1c2cccc3c(N4CCOCC4)c([N+](=O)[O-])cc(c23)C(=O)N1O | B. subtilis RB1 | MIC | µg/mL | 8
NC1CCN(c2ccc3c4c(cccc24)C(=O)N(O)C3=O)C1 (centres unmarked) | B. subtilis RB1 | MIC | µg/mL | 64
O=C1c2cccc3c(N4CCCC4)c(F)cc(c23)C(=O)N1O | B. subtilis RB1 | MIC | µg/mL | 1
O=C1c2cccc3c(Br)ccc(c23)C(=O)N1O | B. subtilis RB1 | MIC | µg/mL | 8
